Recorded IC50, one value per entry.
- tested_target: USP25 (Homo sapiens)
- Construct: purchased R&D Systems
- Sequence (Q9UHP3 whole entry): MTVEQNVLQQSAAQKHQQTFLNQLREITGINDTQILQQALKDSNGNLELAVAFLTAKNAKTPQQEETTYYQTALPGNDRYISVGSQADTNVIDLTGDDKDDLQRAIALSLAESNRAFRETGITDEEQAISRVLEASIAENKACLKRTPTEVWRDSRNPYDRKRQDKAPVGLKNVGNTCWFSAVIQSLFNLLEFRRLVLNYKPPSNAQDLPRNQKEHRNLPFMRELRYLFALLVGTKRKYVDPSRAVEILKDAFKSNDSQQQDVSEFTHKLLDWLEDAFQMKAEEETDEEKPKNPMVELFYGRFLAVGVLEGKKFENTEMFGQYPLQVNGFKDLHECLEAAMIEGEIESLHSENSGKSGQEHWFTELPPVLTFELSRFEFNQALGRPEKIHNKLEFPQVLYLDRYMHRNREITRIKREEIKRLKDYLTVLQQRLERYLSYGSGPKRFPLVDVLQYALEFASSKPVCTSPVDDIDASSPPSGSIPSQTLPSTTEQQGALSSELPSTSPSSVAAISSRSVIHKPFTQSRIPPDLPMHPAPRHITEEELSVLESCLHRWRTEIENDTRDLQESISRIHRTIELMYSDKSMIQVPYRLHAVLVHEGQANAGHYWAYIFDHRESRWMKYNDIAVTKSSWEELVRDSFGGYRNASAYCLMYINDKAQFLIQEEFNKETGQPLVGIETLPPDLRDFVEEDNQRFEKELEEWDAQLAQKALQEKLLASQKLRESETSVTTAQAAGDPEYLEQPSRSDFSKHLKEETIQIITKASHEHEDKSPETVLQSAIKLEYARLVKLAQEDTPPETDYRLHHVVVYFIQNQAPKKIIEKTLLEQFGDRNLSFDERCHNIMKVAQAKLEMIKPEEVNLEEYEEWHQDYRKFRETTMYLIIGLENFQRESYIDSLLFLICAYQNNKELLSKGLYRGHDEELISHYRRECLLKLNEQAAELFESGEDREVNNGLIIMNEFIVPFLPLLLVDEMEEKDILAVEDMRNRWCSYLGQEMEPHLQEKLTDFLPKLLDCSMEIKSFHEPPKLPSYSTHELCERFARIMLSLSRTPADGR
- assay_name: USP25 activity measured using ubiquitin-rhodamine 110 method
- Assay type: biochemical
- particulars: purified USP25 15 nM, ubiquitin-rhodamine 110 125 nM, 30 min preincubation; read-out: Inhibitory activity against USP25 (IC50)
endpoint_label: IC50

INSERT INTO assay_data (structure_as_smiles, assay_result) VALUES
  ('CNc1c(C(=O)NCCc2ccc(N3C[C@H]4CC[C@@H](C3)N4)c(Cl)c2)sc2nc(C)ccc12', '> 10 µM'),
  ('CCc1nc2sc(C(=O)NCCc3ccc(OC)c(OC)c3)c(NC)c2c(C(F)(F)F)c1C', '1 to 5 µM'),
  ('CNc1c(C(=O)NCCc2ccc(OC)c(OC)c2)sc2nc(C)cc(C)c12', '5 to 10 µM'),
  ('CNc1c(C(=O)NCCc2ccc(N3C[C@H]4CC[C@@H](C3)N4)cc2)sc2nc(CC(C)C)ccc12', '> 10 µM'),
  ('CCc1cnc2c(NC)c(C(=O)NCCc3ccc(N4C[C@H]5CC[C@@H](C4)N5)cc3)sc2n1', '0.1 to 1 µM'),
  ('CCc1cc(CCNC(=O)c2sc3nc(C)ccc3c2NC)ccc1N1[C@@H]2CC[C@H]1CNC2', '0.1 to 1 µM'),
  ('CNc1c(C(=O)NCCc2ccc(N3C[C@H]4CC[C@@H](C3)N4)cc2)sc2nccnc12', '> 10 µM'),
  ('CNc1c(C(=O)NCCc2ccc(N3C[C@H]4CC[C@@H](C3)N4)cc2)sc2nc(C3CC3)ccc12', '1 to 5 µM'),
  ('CNc1c(C(=O)NCCc2cc(F)c(N3C[C@H]4CC[C@@H](C3)N4)c(F)c2F)sc2nc(C)ccc12', '5 to 10 µM'),
  ('CNc1c(C(=O)NCCc2ccc(N3C[C@H]4CC[C@@H](C3)N4)cc2)sc2nc(C(F)(F)F)ccc12', '1 to 5 µM'),
  ('CNc1c(C(=O)NCCc2ccc(N3C[C@H]4CC[C@@H](C3)N4)cc2)sc2nc(C)cnc12', '5 to 10 µM'),
  ('CNc1c(C(=O)NCCc2ccc(N3C[C@H]4CC[C@@H](C3)N4)cc2)sc2nc(C(C)C)ccc12', '5 to 10 µM'),
  ('CNc1c(C(=O)NCCc2ccc(N3C[C@H]4CC[C@@H](C3)N4)cc2)sc2nc(OC)ccc12', '0.1 to 1 µM'),
  ('CCCc1ccc2c(NC)c(C(=O)NCCc3ccc(N4C[C@H]5CC[C@@H](C4)N5)cc3)sc2n1', '> 10 µM'),
  ('CNc1c(C(=O)N[C@H]2CCc3cc(N4CC5CCC(C4)N5)ccc3C2)sc2nc(C)ccc12', '0.1 to 1 µM');

###

- tested_target: USP25 (Homo sapiens)
- Construct: purchased R&D Systems
- assay_name: USP25 activity measured using ubiquitin-rhodamine 110 method
- Assay type: biochemical
- particulars: purified USP25 15 nM, ubiquitin-rhodamine 110 125 nM, 30 min preincubation; read-out: Inhibitory activity against USP25 (IC50)
- Procedure: USP25 activity was measured using ubiquitin-rhodamine 110 method. Purified USP25 and the ubiquitin-rhodamine 110 substrate used for measuring DUBs activity were both from R&D Systems. […] As in Example 11, according to the inhibitory rates of the test compound against USP25 under different concentrations, IC50 was calculated.
pIC50: −log10 of the molar value.
endpoint_label: pIC50

INSERT INTO assay_data (compound, assay_result) VALUES
  ('CNc1c(C(=O)N[C@H](C)Cc2ccc(N3C[C@H]4CC[C@@H](C3)N4)cc2)sc2nc(C)ccc12', '6.00 to 7.00'),
  ('CNc1c(C(=O)NC2COc3cc(N4CC5CCC(C4)N5)ccc3C2)sc2nc(C)cnc12 (single isomer, unassigned) [Compound I-88]', '5.30 to 6.00'),
  ('CNc1c(C(=O)NCCc2ccc(C3C4CCC3CNC4)cc2)sc2nc(C)ccc12 (stereo not shown)', '> 7.00'),
  ('CCc1nc2sc(C(=O)NCCc3ccc(N4C[C@H]5CC[C@@H](C4)N5)cc3)c(NC)c2c(C(F)(F)F)c1C', '5.00 to 5.30'),
  ('CNc1c(C(=O)NCCc2c[nH]c3ccccc23)sc2nc(C(F)(F)F)ccc12', '5.00 to 5.30'),
  ('CNc1c(C(=O)NCC(C)(C)c2ccc(N3CC4CCC(C3)N4)cc2F)sc2nc(C)ccc12', '< 5.00'),
  ('CNc1c(C(=O)NCCc2ccc(N3C[C@H]4CC[C@@H](C3)N4)cc2)sc2nc(C)cc(C)c12', '5.00 to 5.30'),
  ('CNc1c(C(=O)N[C@H](C)Cc2ccc(Br)cc2)sc2nc(C)ccc12', '< 5.00'),
  ('CNc1c(C(=O)NC[C@@H](C)c2ccc(N3C[C@H]4CC[C@@H](C3)N4)cc2)sc2nc(C)ccc12', '6.00 to 7.00'),
  ('CNc1c(C(=O)N[C@H]2Cc3ccc(N4CC5CCC(C4)N5)cc3C2)sc2nc(C)ccc12', '< 5.00'),
  ('CNc1c(C(=O)N[C@H](COC)Cc2ccc(N3C[C@H]4CC[C@@H](C3)N4)cc2)sc2nc(C)ccc12', '5.00 to 5.30'),
  ('CNc1c(C(=O)NCCc2ccc(N3CC4CC3CN4)cc2)sc2nc(C)ccc12 (stereo not shown)', '> 7.00'),
  ('CNc1c(C(=O)NCCc2ccc(N3C[C@H]4CC[C@@H](C3)N4)c(C)c2)sc2nc(C)ccc12', '5.00 to 5.30'),
  ('CNc1c(C(=O)NCCc2ccc(N3C[C@H]4CC[C@@H](C3)N4)cc2F)sc2nc(C)ccc12', '6.00 to 7.00'),
  ('CCCc1ccc2c(NC)c(C(=O)NCCc3c[nH]c4ccccc34)sc2n1', '5.30 to 6.00'),
  ('CCc1nc2sc(C(=O)NCCc3c[nH]c4ccccc34)c(NC)c2cc1C', '5.00 to 5.30');

###

- tested_target: USP28 (Homo sapiens, UniProt Q96RU2)
- Construct: purchased R&D Systems
- Sequence (Q96RU2 whole entry): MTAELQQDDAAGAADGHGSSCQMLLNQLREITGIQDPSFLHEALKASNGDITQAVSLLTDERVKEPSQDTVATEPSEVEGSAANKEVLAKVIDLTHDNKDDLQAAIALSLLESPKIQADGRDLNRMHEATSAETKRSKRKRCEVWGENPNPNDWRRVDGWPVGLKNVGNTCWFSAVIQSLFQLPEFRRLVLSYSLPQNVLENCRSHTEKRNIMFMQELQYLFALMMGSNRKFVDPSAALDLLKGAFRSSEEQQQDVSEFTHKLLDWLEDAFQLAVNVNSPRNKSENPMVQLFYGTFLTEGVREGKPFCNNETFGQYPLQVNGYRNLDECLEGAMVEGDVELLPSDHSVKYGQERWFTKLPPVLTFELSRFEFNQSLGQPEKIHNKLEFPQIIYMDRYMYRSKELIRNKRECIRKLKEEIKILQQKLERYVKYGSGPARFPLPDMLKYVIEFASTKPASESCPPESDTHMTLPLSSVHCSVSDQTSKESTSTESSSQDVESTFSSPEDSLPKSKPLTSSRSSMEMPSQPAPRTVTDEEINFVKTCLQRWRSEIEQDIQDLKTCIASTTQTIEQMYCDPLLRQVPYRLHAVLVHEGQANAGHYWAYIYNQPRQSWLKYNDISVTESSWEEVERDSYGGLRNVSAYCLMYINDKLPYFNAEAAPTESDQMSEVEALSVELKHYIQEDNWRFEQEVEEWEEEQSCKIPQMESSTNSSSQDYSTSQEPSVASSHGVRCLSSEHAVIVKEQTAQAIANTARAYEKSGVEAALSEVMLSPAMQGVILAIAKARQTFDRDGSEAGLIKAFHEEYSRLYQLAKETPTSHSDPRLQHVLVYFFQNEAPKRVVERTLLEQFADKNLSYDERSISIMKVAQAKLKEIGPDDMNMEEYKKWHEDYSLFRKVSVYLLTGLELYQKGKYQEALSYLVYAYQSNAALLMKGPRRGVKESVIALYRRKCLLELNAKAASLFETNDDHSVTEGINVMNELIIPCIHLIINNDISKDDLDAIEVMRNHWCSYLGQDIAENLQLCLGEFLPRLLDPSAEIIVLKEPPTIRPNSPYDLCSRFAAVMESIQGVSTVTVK
- assay_name: USP28 activity measured using ubiquitin-rhodamine 110 method
- Assay type: biochemical
- particulars: purified USP28 4 nM, ubiquitin-rhodamine 110 125 nM, 30 min preincubation; read-out: Inhibitory activity against USP28 (IC50)
- Protocol: USP28 activity was measured using ubiquitin-rhodamine 110 method. Purified USP28 and the ubiquitin-rhodamine 110 substrate used for measuring DUBs activity were both from R&D Systems. […] The released fluorescence (excitation wavelength 485 nm, emission wavelength 535 nm) was detected immediately on a microplate reader after the addition of the substrate. […] According to the inhibitory rates of the test compound against USP28 under different concentrations, IC50 was calculated.
pIC50: −log10 of the molar value.
endpoint_label: pIC50

INSERT INTO measurements (molecule, tested_target, assay_result) VALUES
  ('CNc1c(C(=O)N[C@@H](Cc2ccc(N3C[C@H]4CC[C@@H](C3)N4)cc2)C(F)(F)F)sc2nc(C)ccc12 [Compound I-66]', 'USP28 (Homo sapiens, UniProt Q96RU2)', '6.00 to 7.00'),
  ('CNc1c(C(=O)NCCc2ccc(N3C[C@H]4CC[C@@H](C3)N4)cc2)sc2nccc(C)c12 [Compound I-20]', 'USP28 (Homo sapiens, UniProt Q96RU2)', '6.00 to 7.00'),
  ('CNc1c(C(=O)N[C@H](COC)Cc2c[nH]c3ccccc23)sc2nc(C)ccc12 [Compound I-55]', 'USP28 (Homo sapiens, UniProt Q96RU2)', '5.30 to 6.00'),
  ('CCNc1c(C(=O)NCCc2ccc(N3C[C@H]4CC[C@@H](C3)N4)cc2)sc2nc(C)ccc12 [Compound I-23]', 'USP28 (Homo sapiens, UniProt Q96RU2)', '6.00 to 7.00'),
  ('CNc1c(C(=O)NC2COc3cc(N4CC5CCC(C4)N5)ccc3C2)sc2nc(C)cnc12 (single isomer, unassigned) [Compound I-88]', 'USP28 (Homo sapiens, UniProt Q96RU2)', '5.30 to 6.00'),
  ('CCCNc1c(C(=O)NCCc2ccc(N3C[C@H]4CC[C@@H](C3)N4)cc2)sc2nc(C)ccc12 [Compound I-24]', 'USP28 (Homo sapiens, UniProt Q96RU2)', '6.00 to 7.00'),
  ('CNc1c(C(=O)NCCc2c[nH]c3ccccc23)sc2ncccc12 [Compound I-48]', 'USP28 (Homo sapiens, UniProt Q96RU2)', '> 7.00'),
  ('CNc1c(C(=O)NC[C@H](C)c2ccc(N3C[C@H]4CC[C@@H](C3)N4)cc2)sc2nc(C)ccc12 [Compound I-67]', 'USP28 (Homo sapiens, UniProt Q96RU2)', '6.00 to 7.00'),
  ('CNc1c(C(=O)N[C@H](C)Cc2ccc(Br)cc2)sc2nc(C)ccc12 [Compound I-62]', 'USP28 (Homo sapiens, UniProt Q96RU2)', '6.00 to 7.00'),
  ('CNc1c(C(=O)NC2CCc3cc(N4CC5CCC(C4)N5)ccc3C2)sc2nc(C)ccc12 (centres unmarked) [Compound I-89]', 'USP28 (Homo sapiens, UniProt Q96RU2)', '5.30 to 6.00'),
  ('CNc1c(C(=O)NCCc2ccc(N3C[C@H]4CC[C@@H](C3)N4)c(F)c2F)sc2nc(C)ccc12 [Compound I-46]', 'USP28 (Homo sapiens, UniProt Q96RU2)', '6.00 to 7.00'),
  ('CNc1c(C(=O)N[C@@H](C)Cc2ccc(N3C[C@H]4CC[C@@H](C3)N4)cc2)sc2nc(C)ccc12 [Compound I-63]', 'USP28 (Homo sapiens, UniProt Q96RU2)', '6.00 to 7.00'),
  ('CNc1c(C(=O)NCCc2ccc(N3C[C@H]4CC[C@@H](C3)N4)cc2F)sc2nc(Cl)cnc12 [Compound I-81]', 'USP28 (Homo sapiens, UniProt Q96RU2)', '5.30 to 6.00'),
  ('CNc1c(C(=O)NCCc2ccc(N3CC4CC3CN4)cc2)sc2nc(C)ccc12 (centres unmarked) [Compound I-8]', 'USP28 (Homo sapiens, UniProt Q96RU2)', '> 7.00'),
  ('CNc1c(C(=O)NCCc2coc3ccccc23)sc2nc(C)ccc12 [Compound I-56]', 'USP28 (Homo sapiens, UniProt Q96RU2)', '6.00 to 7.00'),
  ('CCc1nc2sc(C(=O)NCCc3ccc(OC)c(OC)c3)c(NC)c2c(C(F)(F)F)c1C [Compound I-59]', 'USP28 (Homo sapiens, UniProt Q96RU2)', '> 7.00'),
  ('CNc1c(C(=O)NCC(C)(C)c2ccc(N3CC4CCC(C3)N4)cc2F)sc2nc(C)ccc12 [Compound I-92]', 'USP28 (Homo sapiens, UniProt Q96RU2)', '5.30 to 6.00'),
  ('CNc1c(C(=O)NCCc2c[nH]c3ccccc23)sc2nc(C(F)(F)F)ccc12 [Compound I-54]', 'USP28 (Homo sapiens, UniProt Q96RU2)', '> 7.00'),
  ('CNc1c(C(=O)NCCc2ccc(C3C4CCC3CNC4)cc2)sc2nc(C)ccc12 (centres unmarked) [Compound I-5]', 'USP28 (Homo sapiens, UniProt Q96RU2)', '> 7.00'),
  ('CNc1c(C(=O)NCCc2ccc(OC)c(OC)c2)sc2nc(C)ccc12 [Compound I-58]', 'USP28 (Homo sapiens, UniProt Q96RU2)', '6.00 to 7.00'),
  ('CCc1nc2sc(C(=O)NCCc3c[nH]c4ccccc34)c(NC)c2cc1C [Compound I-52]', 'USP28 (Homo sapiens, UniProt Q96RU2)', '> 7.00'),
  ('CNc1c(C(=O)NCCc2ccc(N3C[C@H]4CC[C@@H](C3)N4)cc2)sc2nc(CO)ccc12 [Compound I-22]', 'USP28 (Homo sapiens, UniProt Q96RU2)', '6.00 to 7.00'),
  ('CNc1c(C(=O)NCCc2ccc(N3C[C@H]4CC[C@@H](C3)N4)cc2)sc2nc(C#N)ccc12 [Compound I-80]', 'USP28 (Homo sapiens, UniProt Q96RU2)', '5.30 to 6.00'),
  ('CNc1c(C(=O)NCCc2ccc(N3C[C@H]4CC[C@@H](C3)N4)cc2F)sc2nc(C)ccc12 [Compound I-39]', 'USP28 (Homo sapiens, UniProt Q96RU2)', '6.00 to 7.00'),
  ('CNc1ccc2c(NC)c(C(=O)NCCc3ccc(N4C[C@H]5CC[C@@H](C4)N5)cc3)sc2n1 [Compound I-94]', 'USP28 (Homo sapiens, UniProt Q96RU2)', '6.00 to 7.00'),
  ('CNc1c(C(=O)NCCc2ccc(N3C[C@H]4CC[C@@H](C3)N4)cc2)sc2nccc(C(F)(F)F)c12 [Compound I-21]', 'USP28 (Homo sapiens, UniProt Q96RU2)', '6.00 to 7.00'),
  ('CNc1c(C(=O)N[C@H]2Cc3ccc(N4CC5CCC(C4)N5)cc3C2)sc2nc(C)ccc12 [Compound I-84]', 'USP28 (Homo sapiens, UniProt Q96RU2)', '5.30 to 6.00'),
  ('CNc1c(C(=O)NCCc2ccc(OC)c(OC)c2)sc2nc(C)cc(C)c12 [Compound I-60]', 'USP28 (Homo sapiens, UniProt Q96RU2)', '> 7.00'),
  ('CNc1c(C(=O)NCCc2ccc(N3CCNCC3)cc2)sc2nc(C)ccc12 [Compound I-2]', 'USP28 (Homo sapiens, UniProt Q96RU2)', '6.00 to 7.00');

Data provenance is patent US12486284B2.
